TESTED_SYSTEM: ALK protein (Homo sapiens)
Sequence (Q9UM73 with tags, fused parts or gaps): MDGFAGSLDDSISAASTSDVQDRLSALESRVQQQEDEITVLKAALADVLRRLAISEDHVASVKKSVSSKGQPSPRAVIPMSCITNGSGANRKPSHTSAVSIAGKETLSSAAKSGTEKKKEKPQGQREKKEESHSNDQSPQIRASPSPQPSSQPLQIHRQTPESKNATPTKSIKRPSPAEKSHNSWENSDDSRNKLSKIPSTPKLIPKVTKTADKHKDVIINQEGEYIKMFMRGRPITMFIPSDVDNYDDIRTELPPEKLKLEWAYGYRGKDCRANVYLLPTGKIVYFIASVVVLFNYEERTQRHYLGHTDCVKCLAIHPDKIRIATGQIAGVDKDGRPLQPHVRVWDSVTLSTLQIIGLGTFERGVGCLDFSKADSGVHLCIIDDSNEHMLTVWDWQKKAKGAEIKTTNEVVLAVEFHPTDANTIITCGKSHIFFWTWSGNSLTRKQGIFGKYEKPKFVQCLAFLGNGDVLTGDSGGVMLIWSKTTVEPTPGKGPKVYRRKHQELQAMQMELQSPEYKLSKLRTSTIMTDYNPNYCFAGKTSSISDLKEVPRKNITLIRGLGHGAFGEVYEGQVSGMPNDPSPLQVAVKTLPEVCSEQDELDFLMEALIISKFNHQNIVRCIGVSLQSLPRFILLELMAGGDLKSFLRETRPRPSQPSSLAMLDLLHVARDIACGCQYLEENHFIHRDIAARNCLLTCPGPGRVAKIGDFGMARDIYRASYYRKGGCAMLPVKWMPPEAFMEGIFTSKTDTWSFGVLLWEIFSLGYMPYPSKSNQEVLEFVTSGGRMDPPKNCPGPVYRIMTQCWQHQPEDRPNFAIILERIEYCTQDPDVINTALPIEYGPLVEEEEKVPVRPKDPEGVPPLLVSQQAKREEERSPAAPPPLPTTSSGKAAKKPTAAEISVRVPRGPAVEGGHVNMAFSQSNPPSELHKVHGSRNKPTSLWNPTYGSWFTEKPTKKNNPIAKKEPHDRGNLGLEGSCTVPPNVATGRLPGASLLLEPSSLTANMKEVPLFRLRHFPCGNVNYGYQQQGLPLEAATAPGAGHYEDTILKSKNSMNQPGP
EXPERIMENTAL_DETAILS: Western-blot half degradation concentration (DC50) of ALK protein in H3122 cells
Assay type: cell-based
EXPERIMENTAL_CONTEXT: 24 h drug treatment, read-out: DC50 (nM)/ H3122 cell line
Procedure: ALK-positive SR cells (human large cell immunoblastic lymphoma) were purchased from the American Type Culture Collection (ATCC); H3122 cells (human non-small cell lung cancer) were from the Shanghai University of Science and Technology Lin Haifan's research group. The cells used in this present disclosure were cultured in a 37° C. incubator containing 5% CO2. […]
REPORTED_PROPERTY: DC50

CCc1cc2c(cc1N1CCN(C(=O)CCCSc3cccc4c3C(=O)N(C3CCC(=O)NC3=O)C4=O)CC1)C(C)(C)c1[nH]c3cc(C#N)ccc3c1C2=O (stereo not drawn): 100 to 500 nM
CCc1cc2c(cc1N1CCN(C(=O)CCCCCCSc3cccc4c3C(=O)N(C3CCC(=O)NC3=O)C4=O)CC1)C(C)(C)c1[nH]c3cc(C#N)ccc3c1C2=O (stereo not drawn): 100 to 500 nM

Challenge: Which measured DC50 value corresponds to CCc1cc2c(cc1N1CCN(C(=O)CCSc3cccc4c3C(=O)N(C3CCC(=O)NC3=O)C4=O)CC1)C(C)(C)c1[nH]c3cc(C#N)ccc3c1C2=O (stereo not drawn) ?
Response given: 100 to 500 nM
